Kindly state %Inh for each of the entries shown.
- System: CHEK2
- measurement-setup: concentration: 1 μM, replicates: in singlicate; n = 1;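 further: KINOMEscan kinase panel screen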
The answer is to be given in %; state only the numeric part.

Noted for CC(=O)Nc1nc2cnc(Nc3cc(NC(=O)c4cccc(CCC#N)c4)ccc3C)nc2s1 : its %Inh reads 0

%Inh measured on CS(=O)(=O)c1ccc(-c2c(-c3ncn[nH]3)sc(N3CCOCC3)c2C#N)cc1 = 5

response.value for Cc1ccc(NC(=O)Nc2cc(C(C)(C)C)nn2-c2ccccc2)cc1 [GSK1014915] (field: %Inh) = 0

%Inh for CC(C)(C)c1ccc(C(=O)Nc2cn3cc(-c4cccnc4)ccc3n2)cc1 is 6

Form field %Inh, entry COc1ccc(C2=C(Nc3cccc(C(=O)O)c3)C(=O)NC2=O)cc1 [SB-390765] : 0

----------
- Test system: ERK3
- Construct: gene MAPK6
- measurement-setup: concentration: 1 μM, replicates: in singlicate; n = 1
readout-type: %Inh (%)
Respond numerically; units are % and should not be typed.

Note to self: %Inh recorded for Cc1cc(NCC(c2ccccc2)c2ccccc2)nc(NCc2ccc(C(F)(F)F)cc2)n1 [GW497681] was 0

Data point: CC(C)(C)c1ccc(C(=O)Nc2cn3cc(Cl)ccc3n2)cc1 ; %Inh = 0

Sure, the documented %Inh for CS(=O)(=O)c1ccc(-c2nc3n(c2-c2ccncc2)CCC3)cc1 [SKF-105942] is 0

Memo: Cc1ccc(NC(=O)Nc2cccc(Cl)c2)cc1-c1ccc(C(=O)Nc2ccncc2)cc1 [GSK1398468] , reported %Inh: 7

Entry COC(=O)c1c(-c2ccccc2)c2cc(C(=O)O)ccc2c(=O)n1Cc1ccccc1 ; %Inh = 0

----------
- Tested on: ROCK2
- measurement-setup: concentration: 1 μM, replicates: in singlicate; n = 1
readout-type: %Inh (%)
Your answer is read as %, so omit the unit and give the number.

%Inh for CC1=C(C(=O)Nc2cc3cn[nH]c3cc2F)C(c2ccc(C(F)(F)F)cc2)CC(=O)N1 (stereo not drawn) is 98.2

The value of %Inh measured for the compound Cc1cccc(-c2nc(-c3ccc(S(C)(=O)=O)cc3)sc2-c2ccnc(NCCc3ccccc3)c2)c1 turned out to be 0

Notebook: Cl.Oc1ccc(-c2nc(-c3ccccc3)[nH]c2-c2ccncc2)cc1 , %Inh read as 61

Sure, the documented %Inh for O=C(Nc1n[nH]c2cc(-c3cccc(F)c3F)ccc12)C1CC1 is 9

Recorded result, Cc1ccc(-c2cc(-c3c[nH]nc3-c3ccccn3)ccn2)cc1 , %Inh: 17

%Inh reading for Cc1nnc(-c2ccc3occ(-c4ccc(S(C)=O)cc4)c3c2)[nH]1 (stereo not drawn) : 0

Record COc1cc(Nc2nccc(N3CCC(NC(=O)Nc4cc(C)ccc4C)C3)n2)cc(OC)c1OC (stereo not drawn) . Reported %Inh: 2

Measured %Inh of O=C(O)COc1ncnc2cc(-c3ccc4[nH]ncc4c3)sc12 : 61

Recorded result, Fc1cc(Cl)ccc1Nc1ccnc2cc(I)ccc12 , %Inh: 17

----------
For each entry below, report its %Inh value.
- System: TAOK1
- measurement-setup: concentration: 1 μM, replicates: in singlicate; n = 1

Record Cc1cc(NCC(c2ccccc2)c2ccccc2)nc(NCc2ccc(C(F)(F)F)cc2)n1 [GW497681] , field %Inh: 0%

For this compound ( Nc1ncnc2[nH]c(-c3ccccc3)nc12 [AH5015] ), measured %Inh is 7%

// recorded %Inh for Cc1cccc(-c2nc(-c3ccc(S(C)(=O)=O)cc3)sc2-c2ccnc(NCCc3ccccc3)c2)c1 : 0%

Record Cc1cc(N2Cc3ccccc3C2)nc(Nc2ccc(S(=O)(=O)N3CCOCC3)cc2)n1.Cl [GSK1669917] , field %Inh: 0%

Recorded result, COc1ccc(C2=C(Nc3cccc(C(=O)O)c3)C(=O)NC2=O)cc1 [SB-390765] , %Inh: 28%

Item: Cc1cccc(-c2nc(Nc3ccncc3)c3ccccc3n2)n1 [GW855857] | %Inh: 0%

Lab book: %Inh of O=C(Nc1n[nH]c2cc(-c3cccc(F)c3F)ccc12)C1CC1 [SB-733894] noted as 23%

Reported %Inh of Cc1cc(-c2ccc3c(c2)CC[C@@H](N[C@@H](C)c2ccccc2)C3)cnc1N.Cl [GW412617] : 14%

// data source = paper PMC5540273
